measured on: T1, hu-IL-2Rβ subunit (human, UniProt P14784 27-240, limits assumed)
T1 construct: also called human interleukin-2 receptor subunit β; CD122
T1 sequence (looked up): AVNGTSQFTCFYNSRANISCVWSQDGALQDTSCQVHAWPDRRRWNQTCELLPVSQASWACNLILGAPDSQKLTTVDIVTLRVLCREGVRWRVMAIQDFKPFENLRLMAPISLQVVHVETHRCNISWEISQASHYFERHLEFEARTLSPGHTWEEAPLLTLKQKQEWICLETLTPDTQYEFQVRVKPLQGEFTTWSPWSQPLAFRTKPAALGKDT
experiment description: phage ELISA competition assay
Positions of bridges follow the written chain, without caps; N, C: chain ends. No end group written: not given here.
measured attribute: IC50

[
  {
    "binder": "WYSCWIAQLGELCDLDDMGDRV (disulfide 4-13 (inferred)) [SEQ ID NO 350]",
    "result": "< 100 µM"
  },
  {
    "binder": "IPKGESWFPCWMAAMGELCDLE (disulfide 10-19 (inferred)) [SEQ ID NO 208]",
    "result": "< 100 µM"
  },
  {
    "binder": "WYPCWMAHLGELCDLE [SEQ ID NO 474]",
    "result": "< 100 µM"
  }
]
